Tested on: MDA-MB-436
applied-conditions: 72 h
metric-name: EC50, CellTiter-Glo (µM)

>  <compound>
Cc1sc2c(c1C)C(c1ccc(Cl)cc1)=N[C@@H](CC(=O)OC(C)(C)C)c1nnc(C)n1-2 [(+)JQ1]

>  <system>
MDA-MB-436

>  <result-unit>
µM

>  <EC50, CellTiter-Glo>
0.749

$$$$
>  <compound>
CC(=O)N(O)CCCCCNC(=O)CCC(=O)N(O)CCCCCNC(=O)CCC(=O)N(O)CCCCCN

>  <system>
MDA-MB-436

>  <result-unit>
µM

>  <EC50, CellTiter-Glo>
1.57

$$$$

I. Nc1nc2[nH]cnc2c(=S)[nH]1
II. Cn1cc(C2=Nc3cc(NC(=O)C(N)C4CCCCC4)cc4c3C2=CNNC4=O)cn1 (centres undefined)
Ask | So which one has the bigger EC50, CellTiter-Glo here, I or II ? State the label of the item chosen.
Reply | I
(I: 4.73 µM, II: 1.43 µM)

Sourced from the supplement of paper PMC4862054
